In this section we review reported Emax values for a set of molecules.
# study_target: androgen receptor (Homo sapiens, UniProt P10275)
# Sequence (P10275 1-920): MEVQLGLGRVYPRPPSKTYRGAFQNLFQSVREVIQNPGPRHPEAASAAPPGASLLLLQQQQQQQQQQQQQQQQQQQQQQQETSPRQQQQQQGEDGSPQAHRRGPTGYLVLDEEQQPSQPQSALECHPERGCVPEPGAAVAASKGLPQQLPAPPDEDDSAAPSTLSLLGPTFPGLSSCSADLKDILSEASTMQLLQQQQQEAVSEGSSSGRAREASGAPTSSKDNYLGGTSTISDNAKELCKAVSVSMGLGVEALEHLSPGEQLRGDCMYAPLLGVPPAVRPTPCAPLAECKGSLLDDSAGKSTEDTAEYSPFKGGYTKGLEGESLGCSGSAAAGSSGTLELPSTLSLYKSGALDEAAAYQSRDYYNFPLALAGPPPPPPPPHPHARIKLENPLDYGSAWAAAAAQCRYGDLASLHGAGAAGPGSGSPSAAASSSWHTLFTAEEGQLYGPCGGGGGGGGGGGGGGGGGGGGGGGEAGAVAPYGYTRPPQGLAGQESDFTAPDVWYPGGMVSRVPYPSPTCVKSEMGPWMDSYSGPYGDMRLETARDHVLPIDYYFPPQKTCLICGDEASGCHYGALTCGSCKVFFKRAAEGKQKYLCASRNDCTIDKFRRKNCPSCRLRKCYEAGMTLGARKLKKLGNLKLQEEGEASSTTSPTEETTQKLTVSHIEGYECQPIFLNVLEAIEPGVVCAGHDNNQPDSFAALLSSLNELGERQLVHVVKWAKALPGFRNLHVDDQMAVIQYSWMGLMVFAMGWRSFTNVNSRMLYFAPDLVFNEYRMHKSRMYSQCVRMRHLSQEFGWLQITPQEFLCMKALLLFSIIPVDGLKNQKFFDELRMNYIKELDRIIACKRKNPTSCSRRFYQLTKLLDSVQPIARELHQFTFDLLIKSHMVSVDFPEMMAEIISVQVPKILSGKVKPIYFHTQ
# test: Androgenic/antiandrogenic action by transactivation test (PC3 reporter cells)
# Format: cell-based
# Parameters: expressed in transfected cells; host or cells: PC3 cells
# experimental_context: PC-3, read-out: Androgen receptor Antagonism efficacy
Please answer in the form of a number followed by its unit of measurement.

Please review the entries below; each comes with its answer.
1. C=C[C@@H]1CC2=CC(=O)CC[C@@H]2[C@H]2CC[C@@]3(C)[C@@H]([C@H]4C[C@H]4[C@@]34C=CC(=O)O4)[C@@H]21 [Example 16A]    5%
2. CC[C@@H]1CC2=CC(=O)CC[C@@H]2[C@H]2CC[C@@]3(C)[C@@H]([C@@H]4C[C@@H]4[C@@]34C=CC(=O)O4)[C@H]12 [Example 24A]    22.5%
3. C[C@]12CC[C@H]3[C@@H](CCC4=C(Cl)C(=O)CC[C@@H]43)[C@@H]1[C@H]1C[C@H]1[C@@]21C=CC(=O)O1    5%
4. C[C@]12CC[C@H]3[C@@H](CC4(CC4)C4=CC(=O)CC[C@@H]43)[C@@H]1[C@@H]1C[C@@H]1[C@@]21C=CC(=O)O1    5%

Then this molecule:
The value of Emax measured for the molecule CC[C@]12CC[C@H]3[C@H]([C@@H]1[C@@H]1C[C@@H]1[C@@]21C=CC(=O)O1)[C@H](C1CC1)CC1=CC(=O)CC[C@@H]13 turned out to be 5%
